The reported numbers originate from ChEMBL document CHEMBL1154434.

Test system: Rattus norvegicus
Experiment: Antidyslipidemic activity in WR-1339-induced hyperlipidemic Charles Foster rat assessed as reduction in plasma triglyceride level at 100 mg/kg, po after 18 hrs
Format: functional
Parameters: scale not given: the % may be the effect or the level left
Endpoint Label: Activity (%)
Please state the figure in %; there is no need to write the unit.

Please review the entries below; each comes with its answer.
CCCCCCCN/C=C1/C=C(C=O)c2c(ccc3c(C)cc(=O)oc23)C1=O :: 22
Cc1cc(=O)oc2c3c(ccc12)C(=O)/C(=C\NCCC1CNCCO1)C=C3C=O (centres undefined) :: 25
Cc1cc(=O)oc2c1ccc1c(O)c(C=O)cc(C=O)c12 :: 21

Q) Field: Activity (Rattus norvegicus). Entry: `Cc1ccc(C)c(OCCCC(C)(C)C(=O)O)c1`
A) 34
